Attribution: patent US11802128B2

molecular target: PARP2 (Homo sapiens (Human), UniProt Q9UGN5); test: Biochemical fluorescent polarization (FP) assay, displacement of PARPi-FL; assay type: binding; conditions: 20 nM protein, 3 nM PARPi-FL, 4 h at room temperature; read-out: IC50 FP PARP2
Sequence (Q9UGN5 whole entry): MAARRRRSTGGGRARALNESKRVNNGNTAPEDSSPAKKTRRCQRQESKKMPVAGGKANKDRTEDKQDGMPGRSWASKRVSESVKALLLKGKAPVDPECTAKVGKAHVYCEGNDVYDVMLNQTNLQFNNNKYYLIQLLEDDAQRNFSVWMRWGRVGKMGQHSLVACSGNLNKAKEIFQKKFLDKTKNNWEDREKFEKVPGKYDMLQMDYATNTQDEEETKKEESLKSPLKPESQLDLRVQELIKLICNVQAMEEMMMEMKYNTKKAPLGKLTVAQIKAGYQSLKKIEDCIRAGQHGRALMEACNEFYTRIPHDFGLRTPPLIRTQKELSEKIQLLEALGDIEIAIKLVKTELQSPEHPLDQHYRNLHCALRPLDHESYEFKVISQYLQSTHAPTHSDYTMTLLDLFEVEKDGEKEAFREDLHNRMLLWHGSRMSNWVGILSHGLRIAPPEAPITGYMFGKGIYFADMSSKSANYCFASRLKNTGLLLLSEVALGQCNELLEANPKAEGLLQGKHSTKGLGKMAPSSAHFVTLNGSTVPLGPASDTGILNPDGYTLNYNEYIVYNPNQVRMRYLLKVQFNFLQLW
propertyName: IC50 (µM)

Illustrative cases are given below, each with its answer.
- CCc1cc2ncc(CN3C[C@H](Oc4ccc(C(=O)NC5CC5)nc4)[C@H]3C)cc2[nH]c1=O: 2.9
- CCc1cc2ncc(CN3C[C@H](Oc4ccc(C#N)cc4)[C@H]3C)cc2[nH]c1=O: 3.5
- CNC(=O)c1ccc(O[C@H]2CN(Cc3cnc4cc(C)c(=O)[nH]c4c3)[C@@H]2C)cn1: 83
- CCNC(=O)c1ccc(OC2CN(Cc3cnc4cc(C)c(=O)[nH]c4c3)C2)cn1: 76
- CCc1cc2ncc(CN3C[C@H](Oc4ccc(F)cc4)[C@H]3C)cc2[nH]c1=O: 4.2

[a] C[C@@H]1[C@@H](Oc2ccc(C(=O)NC3CC3)nc2)CN1Cc1cnc2c(c1)[nH]c(=O)c1ccoc12
[b] CCc1cc2ncc(CN3CC(n4ccc5nc(C(=O)NC)ccc54)C3)cc2[nH]c1=O
Q: Lab note: check whether a or b shows the higher recorded IC50. Write down the label of the entry you select.
Ans: a

[A] CCc1cc2ncc(CN3CC[C@@](C)(Oc4ccc(C(=O)NC)nc4)C3)cc2[nH]c1=O
[B] Cc1cc2ncc(CN3C[C@H](Oc4ccc(C(=O)N[C@@H]5CC5(F)F)nc4)[C@H]3C)cc2[nH]c1=O (single isomer, unassigned)
[C] Cc1cc2ncc(CN3C[C@H](Oc4ccc(C(=O)NC5(C)CC5)nc4)[C@H]3C)cc2[nH]c1=O
Q: Sort these compounds on IC50 so the largest reading comes first. # answer = labels listed in requested order
Ans: A, C, B

[I] Cc1cc2ncc(CN3CC(Oc4ccc(C(=O)NC5CC5)nc4)C3)cc2[nH]c1=O
[II] Cc1cc2ncc(CN3C[C@H](Oc4ccc(C(=O)N[C@H]5C[C@H](F)C5)nc4)[C@H]3C)cc2[nH]c1=O
Q: Lab note: check whether I or II shows the higher recorded IC50. Write down the label of the entry you select.
Ans: I

[a] Cc1cc2ncc(CN3C[C@H](Oc4ccc(C(=O)NC5CC(F)(F)C5)nc4)[C@H]3C)cc2[nH]c1=O
[b] CNC(=O)c1ccc(O[C@H]2CN(Cc3cnc4cc(C5CC5)c(=O)[nH]c4c3)[C@@H]2C)cn1
[c] O=C(NC1CC1)c1ccc(OC2CN(Cc3cnc4cc(C5CC5)c(=O)[nH]c4c3)C2)cn1
Q: Sort these compounds on IC50 so the largest reading comes first. # answer = labels listed in requested order
Ans: b, a, c

[I] Cc1cc2ncc(CN3C[C@H](Oc4ccc(C#N)cc4)[C@H]3C)cc2[nH]c1=O
[II] CCc1cc2ncc(CN3C[C@H](Oc4ccc(C(=O)NC)cc4)[C@H]3C)cc2[nH]c1=O
[III] CCc1cc2ncc(CN3CC[C@@H](Oc4cnc(C(=O)NC)c(F)c4)C3)cc2[nH]c1=O
Q: Ascending sort, IC50. # answer = labels listed in requested order
Ans: II, III, I

[I] Cc1cc2ncc(CN3CC[C@@H](Oc4ccc(C(=O)NC5CC5)nc4)C3)cc2[nH]c1=O
[II] Cc1cc2ncc(CN3C[C@H](Oc4ccc(C(=O)N[C@H]5CC5(F)F)nc4)[C@H]3C)cc2[nH]c1=O (single isomer, unassigned)
Q: Lab note: check whether I or II shows the higher recorded IC50. Write down the label of the entry you select.
Ans: I
